# EXPERIMENT NOTES: Hypochlorous acid scavenging activity assessed as inhibition of DHR oxidation
# Type: functional
The label yes is reserved for IC50 strictly under 4 µM; no covers values equal to or above it.

{"MOLECULE": "O=C(O)CCCCC1CCSS1 (stereo not drawn) [LIPOIC ACID, ALPHA]", "QUALITATIVE LABEL": "yes"}
{"MOLECULE": "O=c1cc(/C=C/c2ccc(O)c(O)c2)oc2cc(O)ccc12", "QUALITATIVE LABEL": "no"}
{"MOLECULE": "O=c1c(O)c(-c2ccc(O)c(O)c2)oc2cc(O)cc(O)c12 [QUERCETIN]", "QUALITATIVE LABEL": "yes"}
{"MOLECULE": "O=c1cc(/C=C/c2ccccc2)oc2cc(O)ccc12", "QUALITATIVE LABEL": "no"}

* * *

As shown below, each of these compounds has a reported log10 IC50 value.
# EXPERIMENT NOTES: Nitric oxide scavenging activity assessed as inhibition of DAF2 oxidation
# Assay type: functional
METRIC: log10 IC50 (log10 of the value in nM)

{"COMPOUND": "O=c1cc(/C=C/c2ccccc2)oc2cc(O)cc(O)c12", "NUMERIC RESULT": 4.87}
{"COMPOUND": "C[C@@H]1O[C@@H](OC[C@H]2O[C@@H](Oc3c(-c4ccc(O)c(O)c4)oc4cc(O)cc(O)c4c3=O)[C@H](O)[C@@H](O)[C@@H]2O)[C@H](O)[C@H](O)[C@H]1O [RUTIN]", "NUMERIC RESULT": 3.56}
{"COMPOUND": "O=c1cc(/C=C/c2ccc(O)c(O)c2)oc2cc(O)cc(O)c12", "NUMERIC RESULT": 2.71}
{"COMPOUND": "O=c1cc(/C=C/c2ccc(O)c(O)c2)oc2ccccc12", "NUMERIC RESULT": 2.53}
{"COMPOUND": "O=c1c(O)c(-c2ccc(O)c(O)c2)oc2cc(O)cc(O)c12 [QUERCETIN]", "NUMERIC RESULT": 3.29}
{"COMPOUND": "O=c1cc(/C=C/c2ccc(O)c(O)c2)oc2cccc(O)c12", "NUMERIC RESULT": 2.38}
{"COMPOUND": "O=c1cc(/C=C/c2ccc(O)c(O)c2)oc2cc(O)ccc12", "NUMERIC RESULT": 2.46}
{"COMPOUND": "O=c1cc(-c2ccc(O)c(O)c2)oc2cc(O)cc(O)c12 [LUTEOLIN]", "NUMERIC RESULT": 3.42}
